- assay explanation: Toxicity of bis-compounds after single systemic dose
- Assay type: in vivo
- condition: mouse, in vivo, iv; 20% EGME, 16% cremaphor; conc. sol. 10 mg/ml; single dose
property label: LD50

Note LD50 for the molecule shown: CCCCC(c1cc(C)cc(C(C)(C)C)c1O)c1cc(C)cc(C(C)(C)C)c1O 100 to 150 mg/kg

----------
- System: IL-12 induction of IFN-γ in PHA-activated human PBMC
- assay explanation: Screening assay for compounds which inhibit IL-12 induction of IFN-γ (ELISA)
- Format: cell-based
- condition: 5 μg/ml, IL-2 25 U/ml + IL-12 0.5 ng/ml, 48 hr, single test, read-out: % INH of IFNγ
property label: inhibition at 5 µg/mL (%)
Kindly answer with a numeric value in %, unit omitted.

>>> value_observed("Cc1cc(Cl)cc(Cc2cc(Cl)cc(C)c2O)c1O")
103

Note inhibition at 5 µg/mL for the compound shown: CCC(C)(c1ccc(O)c(C)c1)c1ccc(O)c(C)c1 101

Note inhibition at 5 µg/mL for the compound shown: Cc1cc(C(c2ccc([N+](=O)[O-])cc2)c2cc(C)c(O)c(C(C)(C)C)c2)cc(C(C)(C)C)c1O 93

Note inhibition at 5 µg/mL for the compound shown: CCCCCCC(c1cc(C)cc(C)c1O)c1cc(C)cc(C)c1O 96
